Test: Retention time of the compound in isocratic acetonitrile/water by HPLC analysis
Details: buffer
Starred links: 1 amine or outer side, 2 acyl side, 3 side chain; linkers in the order of their positions; H or OH if unused. Non-standard residues stand in square brackets, D forms with d. Residues, ends and D or L forms follow the SMILES beside them. Ile(ψThz) = CC[C@H](C)[C@H](N[*:1])c1nc(C(=O)[*:2])cs1; ValThz = CC(C)[C@H](N[*:1])c1nc(C(=O)[*:2])cs1; NMeF = CN[C@@H](Cc1ccccc1)C(=O)O; NMeI = CC[C@H](C)[C@H](NC)C(=O)O; Tle = CC(C)(C)[C@H](N)C(=O)O
PROPERTY: Retention_time (min)

[
  {
    "COMPOUND": "CC[C@H](C)[C@@H]1NC(=O)[C@@H]2CCCN2C(=O)[C@H](CC(C)C)NC(=O)[C@@H]2CCCN2C(=O)[C@H](Cc2ccccc2)NC(=O)[C@H](C)NC(=O)c2csc1n2 (cyclo(AFPLP[Ile(ψThz)]))",
    "RECORDED_VALUE": 2.19
  }
]

I = CC(C)[C@@H]1NC(=O)c2csc(n2)[C@H](C(C)C)NC(=O)[C@@H]2CCCN2C(=O)[C@H](C(C)C)NC(=O)[C@@H]2CCCN2C(=O)[C@H](Cc2ccccc2)NC1=O (cyclo(FPVP[ValThz]V))
II = CC[C@H](C)[C@@H]1NC(=O)[C@@H]2CCCN2C(=O)[C@H](Cc2ccccc2)N(C)C(=O)[C@H](C(C)(C)C)NC(=O)c2csc(n2)[C@H]([C@@H](C)CC)NC(=O)[C@@H]2CCCN2C1=O (cyclo(IP[Ile(ψThz)][Tle][NMeF]P))
III = CC[C@H](C)[C@@H]1NC(=O)[C@@H]2CCCN2C(=O)[C@H]([C@@H](C)CC)N(C)C(=O)[C@@H]2CCCN2C(=O)[C@H](Cc2ccccc2)NC(=O)[C@H](C)NC(=O)c2csc1n2 (cyclo(AFP[NMeI]P[Ile(ψThz)]))
Hey, quick one: sort these by Retention_time, largest value first please. # format: label list in the order the request specifies
II, I, III
